species on record: Rattus norvegicus; assay: Open TG-GATES - Regimen: Single; format: toxicity, organism-based, Sprague-Dawley; set-up: regimen Single, gender Male, age 6 weeks; settings: in vivo, po, 100 mg/kg, 3 h, tissue Plasma, route gavage, dose level Low
Item-by-item account of RALB
Just the number please, in g/dL, no unit attached.

1. O=C(O)c1cn(C2CC2)c2cc(N3CCNCC3)c(F)cc2c1=O :: 3.7
2. Clc1ccccc1CN1CCc2sccc2C1 :: 3.3
3. O=C(O)c1cc(/N=N/c2ccc(S(=O)(=O)Nc3ccccn3)cc2)ccc1O :: 3.3
4. CCc1cc(C(N)=S)ccn1 [ETHIONAMIDE] :: 3.6

# input for lookup
In plain terms, `C[C@H](CS)C(=O)N1CCC[C@H]1C(=O)O` has a documented RALB of 3.6

###

species: Rattus norvegicus; test: Open TG-GATES - Regimen: Single; type: toxicity, organism-based, Sprague-Dawley; parameters: regimen Single, gender Male, age 6 weeks; conditions: in vivo, po, 0 mg/kg, 6 h, tissue Blood, route gavage, dose level Control
Under this convention, YES denotes Mono strictly below 6% and NO denotes Mono at or above 6%.

Example entries and their recorded answers appear below.
1. CC(=O)Oc1ccccc1C(=O)O [ASPIRIN] :: YES
2. NC(=O)N1c2ccccc2C=Cc2ccccc21 [CARBAMAZEPINE] :: YES
3. O=C(O)c1cn(C2CC2)c2cc(N3CCNCC3)c(F)cc2c1=O [CIPROFLOXACIN] :: NO
4. O=C(O)c1cc(/N=N/c2ccc(S(=O)(=O)Nc3ccccn3)cc2)ccc1O [SULFASALAZINE] :: YES
5. CN(C)CCC=C1c2ccccc2CCc2ccccc21 [AMITRIPTYLINE] :: YES

Input line: is_below(Mono, 6%) for Clc1ccccc1CN1CCc2sccc2C1 [TICLOPIDINE] ?
Output line: YES

Input line: is_below(Mono, 6%) for CSc1ccc2c(c1)N(CCC1CCCCN1C)c1ccccc1S2 (configuration not stated) [THIORIDAZINE] ?
Output line: NO

Input line: is_below(Mono, 6%) for NC(=O)N/N=C/c1ccc([N+](=O)[O-])o1 [NITROFURAZONE] ?
Output line: YES

###

organism: Rattus norvegicus; test: Open TG-GATES - Regimen: Single; format: toxicity, organism-based, Sprague-Dawley; parameters: regimen Single, gender Male, age 6 weeks; conditions: in vivo, po, 300 mg/kg, 24 h, tissue Plasma, route gavage, dose level Middle
Item-by-item account of Ca
Just the number please, in mg/dL, no unit attached.

Examples from the recorded data:
1) O=C(O)c1cc(/N=N/c2ccc(S(=O)(=O)Nc3ccccn3)cc2)ccc1O :: 10.9
2) O=C(O)c1cn(C2CC2)c2cc(N3CCNCC3)c(F)cc2c1=O :: 11.3
3) C[C@H](CS)C(=O)N1CCC[C@H]1C(=O)O :: 11.3

# input for lookup
In plain terms, CCc1cc(C(N)=S)ccn1 [ETHIONAMIDE] has a documented Ca of 10.6

###

species: Rattus norvegicus; assay: Open TG-GATES - Regimen: Daily Repeat; format: toxicity, organism-based, Sprague-Dawley; design: regimen Daily Repeat, gender Male, age 6 weeks; details: in vivo, po, 0 mg/kg, […], tissue Blood, route gavage, dose level Control, time 7 day
Item-by-item account of Hb
Respond with a number, then the unit of measure.

1. Clc1ccccc1CN1CCc2sccc2C1 :: 14 g/dL
2. CC(=O)Oc1ccccc1C(=O)O :: 13.7 g/dL
3. NC(=O)N/N=C/c1ccc([N+](=O)[O-])o1 :: 13.4 g/dL
4. Cn1c(=O)c2[nH]cnc2n(C)c1=O.O :: 13.9 g/dL
5. C[C@H](CS)C(=O)N1CCC[C@H]1C(=O)O :: 13.8 g/dL
6. COc1ccc2c(c1)c(CC(=O)O)c(C)n2C(=O)c1ccc(Cl)cc1 :: 14.1 g/dL
7. NC(=O)N1c2ccccc2C=Cc2ccccc21 [CARBAMAZEPINE] :: 14 g/dL
8. CCc1cc(C(N)=S)ccn1 [ETHIONAMIDE] :: 14.1 g/dL
9. O=C(O)c1cc(/N=N/c2ccc(S(=O)(=O)Nc3ccccn3)cc2)ccc1O :: 14.1 g/dL
10. O=C(O)c1cn(C2CC2)c2cc(N3CCNCC3)c(F)cc2c1=O :: 12.6 g/dL

In plain terms, CSc1ccc2c(c1)N(CCC1CCCCN1C)c1ccccc1S2 (centres undefined) has a documented Hb of 13.9 g/dL

In plain terms, `CO[C@H]1/C=C/O[C@@]2(C)Oc3c(C)c(O)c4c(O)c(c(/C=N/N5CCN(C)CC5)c(O)c4c3C2=O)NC(=O)/C(C)=C\C=C\[C@H](C)[C@H](O)[C@@H](C)[C@@H](O)[C@@H](C)[C@H](OC(C)=O)[C@@H]1C` has a documented Hb of 14.1 g/dL

In plain terms, `COc1ccc(Cc2nccc3cc(OC)c(OC)cc23)cc1OC` has a documented Hb of 13.7 g/dL

In plain terms, `CN(C)CCC=C1c2ccccc2CCc2ccccc21` has a documented Hb of 13.5 g/dL
